Test: spectral properties of free dyes (absorbance, fluorescence emission, ε, Φ, intrinsic brightness)
Format: physicochemical
Conditions: free dye; 10 mM HEPES pH 7.3
Structures can show the parent of a compound that is named as a salt.
readout-type: fluorescence quantum yield (Φ) compared to nondeuterated parent

// query Suppose we examine the molecule `[2H]C1([2H])OC([2H])([2H])C([2H])([2H])N(c2ccc3c(-c4ccccc4C(=O)[O-])c4ccc(=[N+]5C([2H])([2H])C([2H])([2H])OC([2H])([2H])C5([2H])[2H])cc-4oc3c2)C1([2H])[2H]` ; what fluorescence quantum yield (Φ) compared to nondeuterated parent value has been reported?
// result increases

// query Fill in the blank: the reported fluorescence quantum yield (Φ) compared to nondeuterated parent of `[2H]C1([2H])N(c2ccc3c(-c4ccccc4C(=O)[O-])c4ccc(=[N+]5C([2H])([2H])C([2H])([2H])C([2H])([2H])C([2H])([2H])C5([2H])[2H])cc-4oc3c2)C([2H])([2H])C([2H])([2H])C([2H])([2H])C1([2H])[2H]` is ____.
// result increases

// query Recorded fluorescence quantum yield (Φ) compared to nondeuterated parent for `[2H]C1([2H])N(c2ccc3c(-c4ccccc4C(=O)[O-])c4ccc(=[N+]5C([2H])([2H])C([2H])([2H])C([2H])([2H])C5([2H])[2H])cc-4oc3c2)C([2H])([2H])C([2H])([2H])C1([2H])[2H]` , please?
// result increases

// query Which fluorescence quantum yield (Φ) compared to nondeuterated parent value is on record for `[2H]C1([2H])N(c2ccc3c(c2)C(C)(C)C2=CC(=[N+]4C([2H])([2H])C([2H])([2H])C([2H])([2H])C4([2H])[2H])C=CC2=C3c2ccccc2C(=O)[O-])C([2H])([2H])C([2H])([2H])C1([2H])[2H]` ?
// result substantial increases

***
// query Looking for the measured fluorescence quantum yield (Φ) compared to nondeuterated parent of `[2H]C1([2H])N(c2ccc3c(c2)C(C)(C)C2=CC(=[N+]4C([2H])([2H])C([2H])([2H])C4([2H])[2H])C=CC2=C3c2ccccc2C(=O)[O-])C([2H])([2H])C1([2H])[2H]` , can you help?
// result substantial increases

// query Need fluorescence quantum yield (Φ) compared to nondeuterated parent of `[2H]C1([2H])N(c2ccc3c(c2)[Si](C)(C)C2=CC(=[N+]4C([2H])([2H])C([2H])([2H])C([2H])([2H])C4([2H])[2H])C=CC2=C3c2ccccc2C(=O)[O-])C([2H])([2H])C([2H])([2H])C1([2H])[2H]` , thanks.
// result substantial increase

// query I'd like to know its fluorescence quantum yield (Φ) compared to nondeuterated parent. The molecule in question is [2H]C1([2H])N(c2ccc3nc4ccc(=[N+]5C([2H])([2H])C([2H])([2H])C([2H])([2H])C5([2H])[2H])cc-4oc3c2)C([2H])([2H])C([2H])([2H])C1([2H])[2H] [Compound 44, trifluoroacetate]
// result substantial increase

----------
Experiment: spectral properties of free dyes (absorbance, fluorescence emission, ε, Φ, intrinsic brightness)
Type: physicochemical
Conditions: free dye; 10 mM HEPES pH 7.3
readout-type: extinction coefficient (ε) compared to nondeuterated parent

// query What value of measured extinction coefficient (ε) compared to nondeuterated parent is listed for [2H]C1([2H])OC([2H])([2H])C([2H])([2H])N(c2ccc3c(-c4ccccc4C(=O)[O-])c4ccc(=[N+]5C([2H])([2H])C([2H])([2H])OC([2H])([2H])C5([2H])[2H])cc-4oc3c2)C1([2H])[2H] [Compound 22] ?
// result increases

// query I'd like to know its extinction coefficient (ε) compared to nondeuterated parent. The compound in question is [2H]C1([2H])N(c2ccc3c(-c4ccccc4C(=O)[O-])c4ccc(=[N+]5C([2H])([2H])C([2H])([2H])C([2H])([2H])C5([2H])[2H])cc-4oc3c2)C([2H])([2H])C([2H])([2H])C1([2H])[2H] [Compound 18]
// result increases

----------
System: Sox2-HaloTag fusions
Assay: live-cell single-particle tracking of HaloTag ligands
Type: cell-based
Conditions: HaloTag conjugates, equivalent imaging conditions
readout-type: brightness in cells (photons/s)

// query I would be grateful if you could share the reported brightness in cells (photons/s) for `[2H]C1([2H])N(c2ccc3c(-c4cc(C(=O)NCCOCCOCCCCCCCl)ccc4C(=O)[O-])c4ccc(=[N+]5C([2H])([2H])C([2H])([2H])C5([2H])[2H])cc-4oc3c2)C([2H])([2H])C1([2H])[2H]` .
// result higher brightness

// query # query: brightness in cells (photons/s) of entry `[2H]C1([2H])N(c2ccc3c(-c4cc(C(=O)NCCOCCOCCCCCCCl)ccc4C(=O)[O-])c4ccc(=[N+]5C([2H])([2H])C([2H])([2H])C([2H])([2H])C5([2H])[2H])cc-4oc3c2)C([2H])([2H])C([2H])([2H])C1([2H])[2H]`
// result higher brightness

// query Any idea what brightness in cells (photons/s) was measured for `[2H]C1([2H])N(c2ccc3c(c2)[Si](C)(C)C2=CC(=[N+]4C([2H])([2H])C([2H])([2H])C4([2H])[2H])C=CC2=C3c2cc(C(=O)NCCOCCOCCCCCCCl)ccc2C(=O)[O-])C([2H])([2H])C1([2H])[2H]` ?
// result higher brightness
